meta.source: the PolyMetriX glass transition set

Reported glass transition temperature values follow for various compounds
OBSERVABLE: glass transition temperature (°C)

- COMPOUND: "*C(*)(F)F (repeat unit) [Poly(tetrafluoroethylene)]"
  OBSERVABLE: "glass transition temperature"
  RECORDED VALUE: 118.42
- COMPOUND: "*CCCCNC(=O)c1ccc(C(=O)N*)c(Sc2ccccc2)c1 (repeat unit)"
  OBSERVABLE: "glass transition temperature"
  RECORDED VALUE: 136.00
- COMPOUND: "*CC(*)(C)C(=O)OCCCCCCOc1ccc(-c2ccc(C#N)cc2)cc1 (repeat unit)"
  OBSERVABLE: "glass transition temperature"
  RECORDED VALUE: 63.00
- COMPOUND: "*c1ccc(Oc2ccc(C3(c4ccc(Oc5ccc(-c6nnc(*)c7c(-c8ccccc8)c(-c8ccc9ccccc9c8)c(-c8ccc9ccccc9c8)c(-c8ccccc8)c67)cc5)cc4)c4ccccc4-c4ccccc43)cc2)cc1 (repeat unit)"
  OBSERVABLE: "glass transition temperature"
  RECORDED VALUE: 334.00
- COMPOUND: "*c1cccc(CCCOc2cccc(N3C(=O)c4cccc(-c5ccc6c(c5)C(=O)N(*)C6=O)c4C3=O)c2)c1 (repeat unit)"
  OBSERVABLE: "glass transition temperature"
  RECORDED VALUE: 178.00
- COMPOUND: "*c1ccc2c(c1)C(=O)N(c1ccc(Oc3ccc(N4C(=O)c5ccc(C(F)(F)C(F)(F)C(*)(F)F)cc5C4=O)cc3)cc1)C2=O (repeat unit)"
  OBSERVABLE: "glass transition temperature"
  RECORDED VALUE: 222.00
- COMPOUND: "*C(*)(F)Cl (repeat unit)"
  OBSERVABLE: "glass transition temperature"
  RECORDED VALUE: 77.00
- COMPOUND: "*c1ccc(OCCCCCCCCCCCOC(=O)CCCCC(=O)OCCCCCCCCCCCOc2ccc(-c3nnc(*)s3)cc2)cc1 (repeat unit)"
  OBSERVABLE: "glass transition temperature"
  RECORDED VALUE: 69.00
- COMPOUND: "*OCCCCOC1COC2C(OC(=O)CCCCC(=O)OC3COC4C(*)COC34)COC12 (repeat unit)"
  OBSERVABLE: "glass transition temperature"
  RECORDED VALUE: 114.00
- COMPOUND: "*CC(*)(C)C(=O)OCCN(CC)c1ccc([N+](=O)[O-])cc1 (repeat unit)"
  OBSERVABLE: "glass transition temperature"
  RECORDED VALUE: 98.00
- COMPOUND: "*CCOC(=O)C1CCC(C(=O)O*)CC1 (repeat unit)"
  OBSERVABLE: "glass transition temperature"
  RECORDED VALUE: 25.00
- COMPOUND: "*CC(CC(*)(C#N)C#N)c1ccc(CCl)cc1 (repeat unit)"
  OBSERVABLE: "glass transition temperature"
  RECORDED VALUE: 180.00
- COMPOUND: "*C(=O)c1ccc2c(c1)C(=O)N(c1ccc(Oc3ccc(NC(=O)c4cccc(C(=O)Nc5ccc(Oc6ccc(N7C(=O)c8ccc(*)cc8C7=O)cc6)cc5)c4)cc3)cc1)C2=O (repeat unit)"
  OBSERVABLE: "glass transition temperature"
  RECORDED VALUE: 232.00
- COMPOUND: "*CCC(C)(C)C(*)(C)C (repeat unit)"
  OBSERVABLE: "glass transition temperature"
  RECORDED VALUE: 87.00
- COMPOUND: "*CC(*)(C)C(=O)OCCCCCCCCCCCOc1ccc(/N=N/c2ccc(OC(=O)c3ccc4c(c3)OCCOCCOCCOCCO4)cc2)cc1 (repeat unit)"
  OBSERVABLE: "glass transition temperature"
  RECORDED VALUE: 59.00
- COMPOUND: "*Oc1ccc2c(c1)C(C)(c1ccc(OC(*)=O)cc1)CC2(C)C (repeat unit)"
  OBSERVABLE: "glass transition temperature"
  RECORDED VALUE: 201.70
